EXPERIMENTAL_TARGET: Neuronal acetylcholine receptor; alpha3/beta4 (Rattus norvegicus) (UniProt P04757+P12392)
PROTOCOL: Binding affinity (Ki) for rat nicotinic acetylcholine receptor alpha3-beta4 subunits versus 0.5 nM [3H](1)-epibatidine
Assay type: protein-complex assay
Values of Affinity greater than or equal to 200 nM map to MET; values below map to NOT MET.

COMPOUND	ANSWER_LABEL
O=c1c(I)ccc2n1CC1CNCC2C1 (stereo not drawn)	NOT MET
O=c1c(I)cc(I)c2n1CC1CNCC2C1 (stereo not drawn)	MET
S=c1cccc2n1CC1CNCC2C1 (stereo not drawn)	MET
O=c1c(Br)cc(Br)c2n1CC1CNCC2C1 (stereo not drawn)	MET
O=c1cccc2n1C[C@@H]1CNC[C@H]2C1	MET
O=c1c(Cl)cc(Cl)c2n1CC1CNCC2C1 (stereo not drawn)	MET
Clc1ccc(C2CC3CCC2N3)cn1 (stereo not drawn) [EPIBATIDINE]	NOT MET
C[N+]1(C)CC2CC(C1)c1cccc(=O)n1C2 (stereo not drawn)	MET

###

EXPERIMENTAL_TARGET: Acetylcholine receptor; alpha1/beta1/delta/gamma (Homo sapiens, UniProt P02708+P07510+P11230+Q07001)
Sequence (P02708 whole entry): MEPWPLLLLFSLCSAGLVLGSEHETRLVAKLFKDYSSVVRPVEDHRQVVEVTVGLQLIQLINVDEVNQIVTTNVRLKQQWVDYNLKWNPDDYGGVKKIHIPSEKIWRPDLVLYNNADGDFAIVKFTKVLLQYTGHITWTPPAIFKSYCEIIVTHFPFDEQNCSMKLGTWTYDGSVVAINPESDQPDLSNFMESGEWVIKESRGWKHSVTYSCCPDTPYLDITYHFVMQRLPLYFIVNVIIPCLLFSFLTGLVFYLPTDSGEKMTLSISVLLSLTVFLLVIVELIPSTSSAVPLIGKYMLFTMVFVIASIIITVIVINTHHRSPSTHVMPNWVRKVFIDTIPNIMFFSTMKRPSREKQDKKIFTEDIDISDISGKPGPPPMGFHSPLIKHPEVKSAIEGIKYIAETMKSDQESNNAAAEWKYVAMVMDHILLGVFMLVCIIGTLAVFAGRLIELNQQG
Sequence (P07510 whole entry): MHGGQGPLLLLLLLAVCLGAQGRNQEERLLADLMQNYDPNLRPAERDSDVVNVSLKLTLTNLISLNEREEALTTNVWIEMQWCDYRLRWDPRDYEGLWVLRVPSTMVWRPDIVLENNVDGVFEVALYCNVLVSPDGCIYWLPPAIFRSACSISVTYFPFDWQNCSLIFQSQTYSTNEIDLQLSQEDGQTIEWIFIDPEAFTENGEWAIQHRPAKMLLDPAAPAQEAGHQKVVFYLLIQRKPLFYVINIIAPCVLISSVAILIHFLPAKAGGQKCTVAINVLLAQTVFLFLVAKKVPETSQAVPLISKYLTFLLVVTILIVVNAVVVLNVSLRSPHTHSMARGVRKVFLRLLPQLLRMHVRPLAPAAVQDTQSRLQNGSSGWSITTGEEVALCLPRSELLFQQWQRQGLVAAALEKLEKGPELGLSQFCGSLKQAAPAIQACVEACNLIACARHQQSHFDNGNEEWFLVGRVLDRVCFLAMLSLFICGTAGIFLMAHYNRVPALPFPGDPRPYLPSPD
Sequence (P11230 whole entry): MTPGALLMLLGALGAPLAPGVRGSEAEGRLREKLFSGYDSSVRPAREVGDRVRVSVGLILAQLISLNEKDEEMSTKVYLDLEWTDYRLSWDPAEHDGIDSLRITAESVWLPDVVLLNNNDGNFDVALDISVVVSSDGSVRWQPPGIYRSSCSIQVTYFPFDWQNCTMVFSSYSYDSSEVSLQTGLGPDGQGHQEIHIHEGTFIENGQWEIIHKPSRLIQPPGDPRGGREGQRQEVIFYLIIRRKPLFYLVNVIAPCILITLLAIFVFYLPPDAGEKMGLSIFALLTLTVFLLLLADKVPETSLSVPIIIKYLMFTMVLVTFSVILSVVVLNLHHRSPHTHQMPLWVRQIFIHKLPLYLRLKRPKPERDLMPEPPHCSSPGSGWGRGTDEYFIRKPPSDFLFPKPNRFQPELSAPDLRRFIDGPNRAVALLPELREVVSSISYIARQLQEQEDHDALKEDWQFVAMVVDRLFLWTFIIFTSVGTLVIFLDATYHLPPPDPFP
Sequence (Q07001 whole entry): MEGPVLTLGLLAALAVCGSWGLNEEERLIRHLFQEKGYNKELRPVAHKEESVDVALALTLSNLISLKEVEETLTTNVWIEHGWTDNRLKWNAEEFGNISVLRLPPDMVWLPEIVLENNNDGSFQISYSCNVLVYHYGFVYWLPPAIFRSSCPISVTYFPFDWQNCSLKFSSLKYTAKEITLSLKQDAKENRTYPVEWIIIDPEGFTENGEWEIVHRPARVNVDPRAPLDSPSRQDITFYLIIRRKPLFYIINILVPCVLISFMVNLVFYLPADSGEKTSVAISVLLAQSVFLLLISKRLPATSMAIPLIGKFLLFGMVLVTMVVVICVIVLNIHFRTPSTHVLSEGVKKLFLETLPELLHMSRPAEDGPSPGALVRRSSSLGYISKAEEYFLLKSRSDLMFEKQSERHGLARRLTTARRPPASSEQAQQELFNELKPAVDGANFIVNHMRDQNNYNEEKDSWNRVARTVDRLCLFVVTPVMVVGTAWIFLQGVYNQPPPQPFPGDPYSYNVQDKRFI
PROTOCOL: Change in membrane potential in TE-671 cells expressing acetylcholine neuromuscular receptors

MOLECULE	EC50
O=c1c(Cl)cc(Cl)c2n1CC1CNCC2C1 (centres undefined)	> 100 nM
S=c1cccc2n1CC1CNCC2C1 (centres undefined)	> 100 nM
O=c1c(Br)cc(Br)c2n1CC1CNCC2C1 (centres undefined)	> 100 nM
O=c1ccc(Cl)c2n1CC1CNCC2C1 (centres undefined)	> 100 nM
O=c1c(I)ccc2n1CC1CNCC2C1 (centres undefined)	45 nM
O=c1cccc2n1C[C@@H]1CNC[C@H]2C1	11 nM
O=c1c(I)cc(I)c2n1CC1CNCC2C1 (centres undefined)	> 100 nM
O=c1c(Cl)ccc2n1CC1CNCC2C1 (centres undefined)	28 nM
O=c1ccc(Br)c2n1CC1CNCC2C1 (centres undefined)	> 100 nM

###

EXPERIMENTAL_TARGET: Neuronal acetylcholine receptor; alpha4/beta2 (Homo sapiens, UniProt P17787+P43681)
PROTOCOL: Percentage efficacy in K-177 cells expressing acetylcholine central neuronal receptor type alpha-4 beta2 subunits as change in membrane potential
Type: functional, cell-based
PARAMETER_MEASURED: Efficacy

COMPOUND	ENDPOINT_RESULT
O=c1ccc(Br)c2n1CC1CNCC2C1 (centres undefined)	70%
O=c1c(Cl)ccc2n1CC1CNCC2C1 (centres undefined)	72%
O=c1c(Cl)cc(Cl)c2n1CC1CNCC2C1 (centres undefined)	20%
O=c1cccc2n1C[C@@H]1CNC[C@H]2C1	59%

###

Each entry below lists one item and its recorded EC50 value.
EXPERIMENTAL_TARGET: Neuronal acetylcholine receptor; alpha3/beta4 (Rattus norvegicus, UniProt P04757+P12392)
Sequence (P04757 whole entry): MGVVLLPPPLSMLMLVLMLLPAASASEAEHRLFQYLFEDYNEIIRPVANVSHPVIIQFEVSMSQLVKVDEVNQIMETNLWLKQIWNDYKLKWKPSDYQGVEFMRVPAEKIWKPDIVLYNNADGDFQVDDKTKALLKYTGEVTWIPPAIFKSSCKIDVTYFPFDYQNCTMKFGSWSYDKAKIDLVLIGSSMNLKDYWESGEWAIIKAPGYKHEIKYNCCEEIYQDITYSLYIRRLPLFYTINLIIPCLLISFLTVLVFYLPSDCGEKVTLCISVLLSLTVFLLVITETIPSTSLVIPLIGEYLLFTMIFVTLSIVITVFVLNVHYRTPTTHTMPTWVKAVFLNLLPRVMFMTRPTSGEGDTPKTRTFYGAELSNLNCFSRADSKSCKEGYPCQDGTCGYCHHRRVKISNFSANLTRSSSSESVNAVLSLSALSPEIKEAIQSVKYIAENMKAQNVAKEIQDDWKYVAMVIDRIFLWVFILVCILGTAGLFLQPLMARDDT
Sequence (P12392 whole entry): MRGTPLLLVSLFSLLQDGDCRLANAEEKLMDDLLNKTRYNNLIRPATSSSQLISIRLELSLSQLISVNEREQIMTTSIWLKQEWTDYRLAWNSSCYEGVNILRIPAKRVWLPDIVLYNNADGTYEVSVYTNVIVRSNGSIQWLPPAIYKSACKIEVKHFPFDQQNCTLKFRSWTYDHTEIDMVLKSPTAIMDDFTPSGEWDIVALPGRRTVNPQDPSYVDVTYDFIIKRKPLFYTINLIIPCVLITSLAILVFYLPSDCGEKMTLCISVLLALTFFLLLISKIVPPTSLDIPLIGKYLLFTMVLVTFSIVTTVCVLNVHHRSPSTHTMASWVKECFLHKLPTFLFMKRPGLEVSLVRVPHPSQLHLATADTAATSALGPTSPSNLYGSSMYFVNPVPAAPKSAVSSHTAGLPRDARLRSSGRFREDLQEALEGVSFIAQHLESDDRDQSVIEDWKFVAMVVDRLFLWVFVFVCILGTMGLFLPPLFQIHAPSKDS
PROTOCOL: Effective concentration in KXalpha-3-beta-4R2 cells expressing rat nicotinic acetylcholine receptor alpha3-beta4 subunits

MOLECULE	EXPERIMENTAL_TARGET	EC50
S=c1cccc2n1CC1CNCC2C1 (stereo unspecified)	Neuronal acetylcholine receptor; alpha3/beta4 (Rattus norvegicus, UniProt P04757+P12392)	> 100 nM
O=c1ccc(Cl)c2n1CC1CNCC2C1 (stereo unspecified)	Neuronal acetylcholine receptor; alpha3/beta4 (Rattus norvegicus, UniProt P04757+P12392)	> 100 nM
O=c1c(Cl)cc(Cl)c2n1CC1CNCC2C1 (stereo unspecified)	Neuronal acetylcholine receptor; alpha3/beta4 (Rattus norvegicus, UniProt P04757+P12392)	> 100 nM
O=c1c(I)cc(I)c2n1CC1CNCC2C1 (stereo unspecified)	Neuronal acetylcholine receptor; alpha3/beta4 (Rattus norvegicus, UniProt P04757+P12392)	> 100000 nM
C[N+]1(C)CC2CC(C1)c1cccc(=O)n1C2 (stereo unspecified)	Neuronal acetylcholine receptor; alpha3/beta4 (Rattus norvegicus, UniProt P04757+P12392)	> 100 nM
O=c1c(Br)cc(Br)c2n1CC1CNCC2C1 (stereo unspecified)	Neuronal acetylcholine receptor; alpha3/beta4 (Rattus norvegicus, UniProt P04757+P12392)	> 100 nM

All figures here come from ChEMBL document CHEMBL1141898.
